Target: T315I Bcr-abl (Homo sapiens, UniProt P00519, T315I)
Construct: BCR (fusion partner); the other entry of the earlier key: BCR (P11274, Breakpoint cluster region protein)
Test: Antiproliferative effect on Ba/F3 cells expressing T315I Bcr-abl
Settings: T315I mutant
measure: pIC50
In simple prose, pIC50 is minus the logarithm base ten of a concentration in moles per litre.

Q: Give pIC50; test system T315I Bcr-abl (Homo sapiens, UniProt P00519, T315I); molecule "Cc1ccc(Nc2ncc3nc(-c4cc(NC(=O)c5cccc(C(F)(F)F)c5)ccc4C)c(=O)n(C)c3n2)cn1"
A: 7.26

----------
Target: E255V Bcr-abl (Homo sapiens, UniProt P00519, E255V)
Construct: BCR (fusion partner); the other entry of the earlier key: BCR (P11274, Breakpoint cluster region protein)
Test: Antiproliferative effect on Ba/F3 cells expressing E255V Bcr-abl
Settings: E255V mutant
measure: IC50 (nM)
Value expressed in nM; do not type the unit.

Q: Note IC50 for the compound shown: "Cc1ccc(Nc2ncc3nc(-c4cc(NC(=O)c5cccc(C(F)(F)F)c5)ccc4C)c(=O)n(C)c3n2)cn1"
A: 13

----------
Target: F317L Bcr-abl (Homo sapiens, UniProt P00519, F317L)
Construct: BCR (fusion partner); the other entry of the earlier key: BCR (P11274, Breakpoint cluster region protein)
Sequence (P00519 229-512 F317L limits assumed): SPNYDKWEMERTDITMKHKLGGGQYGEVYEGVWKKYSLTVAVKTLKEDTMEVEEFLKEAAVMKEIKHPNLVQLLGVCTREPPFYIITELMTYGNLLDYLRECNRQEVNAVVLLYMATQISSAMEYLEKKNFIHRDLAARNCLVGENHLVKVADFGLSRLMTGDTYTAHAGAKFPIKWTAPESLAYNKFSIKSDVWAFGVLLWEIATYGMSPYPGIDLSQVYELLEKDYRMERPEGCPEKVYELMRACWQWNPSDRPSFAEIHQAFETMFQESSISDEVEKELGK
Assay: Antiproliferative effect on Ba/F3 cells expressing F317L Bcr-abl
Settings: F317L mutant
Experimental: 32D-p210 cells are plated into 96 well TC plates at a density of 15,000 cells per well. 50 μL of two fold serial dilutions of the test compound (Cmax is 40 μM) are added to each well (STI571 is included as a positive control). After incubating the cells for 48 hours at 37° C., 5% CO2, 15 μl, of MTT (Promega) is added to each well and the cells are incubated for an additional 5 hours. […]
measure: IC50

Q: Using known records, supply IC50 for Cc1ccc(Nc2ncc3nc(-c4cc(NC(=O)c5cccc(C(F)(F)F)c5)ccc4C)c(=O)n(C)c3n2)cn1 [Example 2]
A: < 0.5 nM

----------
Target: wild type Bcr-abl (Homo sapiens)
Construct: BCR (fusion partner); the other entry of the earlier key: BCR (P11274, Breakpoint cluster region protein)
Experiment: Antiproliferative effect on Ba/F3 cells expressing wild type Bcr-abl
measure: IC50

Q: Kindly indicate its recorded IC50. Item: Cc1ccc(Nc2ncc3nc(-c4cc(NC(=O)c5cccc(C(F)(F)F)c5)ccc4C)c(=O)n(C)c3n2)cn1 [Example 2]
A: < 500 pM

----------
Target: G250E Bcr-abl (Homo sapiens, UniProt P00519, G250E)
Construct: BCR (fusion partner); expressed in transfected cells; host or cells: Ba/F3 (murine pro-B cells); the other entry of the earlier key: BCR (P11274, Breakpoint cluster region protein)
Sequence (P00519 229-512 G250E limits assumed): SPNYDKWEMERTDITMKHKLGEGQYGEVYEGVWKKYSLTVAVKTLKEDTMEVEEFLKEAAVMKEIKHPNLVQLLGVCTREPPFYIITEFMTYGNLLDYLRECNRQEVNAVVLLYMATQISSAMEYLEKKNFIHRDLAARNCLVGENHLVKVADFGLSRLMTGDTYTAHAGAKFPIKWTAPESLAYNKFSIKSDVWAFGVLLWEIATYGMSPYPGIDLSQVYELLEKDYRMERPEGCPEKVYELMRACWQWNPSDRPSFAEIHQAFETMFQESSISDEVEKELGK
Assay: Antiproliferative effect on Ba/F3 cells expressing G250E Bcr-abl
Type: cell-based
Conditions: G250E mutant
measure: pIC50
Remember the convention: pIC50 equals -log10 of concentration in molar.

Q: Give pIC50 for this entry on G250E Bcr-abl (Homo sapiens, UniProt P00519, G250E): Cc1ccc(Nc2ncc3nc(-c4cc(NC(=O)c5cccc(C(F)(F)F)c5)ccc4C)c(=O)n(C)c3n2)cn1 [Example 2]
A: 7.64

----------
Target: M351T Bcr-abl (Homo sapiens, UniProt P00519, M351T)
Construct: BCR (fusion partner); the other entry of the earlier key: BCR (P11274, Breakpoint cluster region protein)
Test: Antiproliferative effect on Ba/F3 cells expressing M351T Bcr-abl
Settings: M351T mutant
measure: IC50

Q: Supply IC50 value. Item: Cc1ccc(Nc2ncc3nc(-c4cc(NC(=O)c5cccc(C(F)(F)F)c5)ccc4C)c(=O)n(C)c3n2)cn1 [Example 2]
A: < 0.5 nM
